Values compiled from patent US20200003760A1.

System: HepG2 cells
Protocol Text: Drug/cytokine-induced cytotoxicity (% LDH release) concentration-response in HepG2 cells
Assay type: cell-based, human
Test Parameters: Homo sapiens, HepG2; categorical, Delta threshold 10 LDH percentage points; drug alone (VEH); read-out: D10
// Emax lookup, one value per entry

Answered cases to consult:
>>> reported("CC(=O)[C@]1(O)Cc2c(O)c3c(c(O)c2[C@@H](O[C@H]2C[C@H](N)[C@H](O)[C@H](C)O2)C1)C(=O)c1ccccc1C3=O [Idarubicin]")
"< 10%"
>>> reported("CC(C)Cc1ccc(C(C)C(=O)O)cc1 (centres unmarked) [Ibuprofen]")
"> 10%"
>>> reported("Cc1onc(-c2c(F)cccc2Cl)c1C(=O)N[C@@H]1C(=O)N2[C@@H]1SC(C)(C)[C@@H]2C(=O)O [Flucloxacillin]")
"< 10%"
>>> reported("CS(=O)(=O)c1ccc(C2=C(c3ccccc3)C(=O)OC2)cc1 [Rofecoxib]")
"< 10%"
>>> reported("C[C@H]1COc2c(N3CCN(C)CC3)c(F)cc3c(=O)c(C(=O)O)cn1c23 [Levofloxacin]")
"< 10%"

Inquiry: Recall and state the measured Emax for CN[C@H]1CC[C@@H](c2ccc(Cl)c(Cl)c2)c2ccccc21 [Sertraline] .
Reply text: < 10%

Inquiry: Tell us which Emax value is on record for O=C(O)[C@H]1/C(=C/CO)O[C@@H]2CC(=O)N21 [Clavulanate]
Reply text: < 10%

Inquiry: Consider the molecule O=C1CC2(CCCC2)CC(=O)N1CCCCN1CCN(c2ncccn2)CC1 [Buspirone] . State its measured Emax.
Reply text: < 10%
